These entries and their values trace back to the supplement of paper PMC10567573.

B1: FAM189A2 (parent)
chain: CALNALTTTVCLVAAALRYLQIFA

# Variants of: B1
# method_notes: protein stability index of a GFP-peptide fusion (GPS, HEK-293T) (PSI 1-6); higher = more stable;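 also: lentivirally expressed fusions sorted by FACS into six bins by GFP to DsRed ratio, PSI derived from sequencing read proportions per bin multiplied by bin number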
# condition_set: c terminus: a fixed tail appended
measured_endpoint: protein stability index
Give only the figure.

Reference set (4 entries):
primary_sequence	protein stability index
CAQNALTTTVCLVAAALRYLQIFA	3
CALNALTTTVMLVAAALRYLQIFA	2.97
CATNALTTTVCLVAAALRYLQIFA	2.98
CALNALTTTVCLVAAALRYLQIFW	2.96

// switching to the query variant
Lookup result for `CALNALTTTECLVAAALRYLQIFA` ; measured protein stability index: 3.04
